Data origin: patent US9776991B2

Target: recombinant sEH (soluble epoxide hydrolase, EPHX2) (Homo sapiens (Human))
Sequence (P34913 whole entry): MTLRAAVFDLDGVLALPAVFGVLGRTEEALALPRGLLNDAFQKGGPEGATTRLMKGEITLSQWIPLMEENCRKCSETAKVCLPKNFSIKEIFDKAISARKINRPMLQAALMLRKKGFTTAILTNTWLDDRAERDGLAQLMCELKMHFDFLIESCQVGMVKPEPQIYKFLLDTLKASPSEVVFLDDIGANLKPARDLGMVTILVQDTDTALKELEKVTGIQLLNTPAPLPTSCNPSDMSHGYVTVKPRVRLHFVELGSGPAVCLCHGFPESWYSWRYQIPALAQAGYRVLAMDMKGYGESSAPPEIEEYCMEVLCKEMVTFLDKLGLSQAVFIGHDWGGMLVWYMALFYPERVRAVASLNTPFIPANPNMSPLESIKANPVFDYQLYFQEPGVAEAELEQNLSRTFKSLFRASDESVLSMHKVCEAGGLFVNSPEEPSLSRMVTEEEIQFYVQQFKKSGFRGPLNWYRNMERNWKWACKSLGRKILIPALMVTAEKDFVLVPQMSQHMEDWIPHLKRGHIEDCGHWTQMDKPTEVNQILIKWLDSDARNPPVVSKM
Assay: biochemical fluorometric sEH inhibition assay with Phome substrate
Settings: recombinant sEH purified from Sf9 insect cells, 2 nM sEH, 5 μM Phome, 60 minutes at 30° C.
Some compounds, each annotated with its measured pIC50.
Reminder that pIC50 is minus the log10 of a molar concentration.

// known answers, use as guide
compound	pIC50
Cc1cc(=O)oc(C)c1C(=O)N1CCN(Cc2ccc(C(=O)NCc3ccc(C(F)(F)F)cc3)s2)CC1	9.04
COCCC(=O)N1CCN(Cc2ncc(C(=O)NCc3ccc(Cl)cc3Cl)s2)CC1	7.48
COc1ncccc1C(=O)N1CCN(Cc2ccc(C(=O)NCc3ccccc3C(F)(F)F)s2)CC1	8.95
Cc1cccnc1N1CCN(Cc2ccc(C(=O)NCc3ccccc3OC(F)(F)F)s2)CC1=O	8.79
O=C(NCc1ccc(Cl)cc1Cl)c1ccc(CN2CCN(C(=O)[C@@H]3C[C@H]3c3ccccc3)CC2)s1	8.59
NC1(C(=O)N2CCN(Cc3ccc(C(=O)NCc4ccccc4OC(F)(F)F)s3)CC2)CCC1	8.73

pIC50 for CC(O)CC(=O)N1CCN(Cc2ccc(C(=O)NCc3ccccc3OC(F)(F)F)s2)CC1 (stereo not shown) is 8.86

Record O=C(NCc1ccccc1OC(F)(F)F)c1ccc(CN2CCN(C(=O)c3c[nH]cnc3=O)CC2)s1 , field pIC50: 8.65

Lookup result for CC(C)CCNC(=O)c1ccc(CN2CCN(C(=O)c3ccnn3C(F)F)CC2)s1 ; measured pIC50: 8.53

pIC50 for Cc1cccnc1C(=O)N1CCN(Cc2ncc(C(=O)NCc3ccc(Cl)cc3Cl)s2)CC1 is 7.49

Lookup result for O=C(NCc1ccc(Cl)cc1Cl)c1cnc(CN2CCN(C(=O)c3ccccn3)CC2)s1 ; measured pIC50: 7.47

Per the record, COc1ccc(CNC(=O)c2ccc(CN3CCN(c4nccn4C)CC3)s2)c(OC(F)(F)F)c1 has pIC50 of 8.78

###

Target: recombinant sEH (soluble epoxide hydrolase, EPHX2) (Homo sapiens (Human))
Assay: biochemical fluorometric sEH inhibition assay with Phome substrate
Settings: recombinant sEH purified from Sf9 insect cells, 2 nM sEH, 5 μM Phome, 60 minutes at 30° C.
Below, each entry is listed alongside its reported pIC50.
Entry type: numeric. Quantity: pIC50, the -log10 of concentration in molar units.

compound	target.system	pIC50
NC(CF)C(=O)N1CCN(Cc2ccc(C(=O)NCc3ccc(Cl)cc3Cl)s2)CC1 (centres unmarked) [Example 48]	recombinant sEH (soluble epoxide hydrolase, EPHX2) (Homo sapiens (Human))	8.57
O=C(NCc1ccccc1C(F)(F)F)c1ccc(CN2CCN(C(=O)c3cscc3Br)CC2)s1 [Example 18]	recombinant sEH (soluble epoxide hydrolase, EPHX2) (Homo sapiens (Human))	9.17
CC1(C)SCN[C@H]1C(=O)N1CCN(Cc2ccc(C(=O)NCc3ccc(Cl)cc3Cl)s2)CC1 [Example 103]	recombinant sEH (soluble epoxide hydrolase, EPHX2) (Homo sapiens (Human))	8.63
O=C1CCC(C(=O)N2CCN(Cc3ccc(C(=O)NCc4ccccc4OC(F)(F)F)s3)CC2)N1 (centres unmarked) [Example 102]	recombinant sEH (soluble epoxide hydrolase, EPHX2) (Homo sapiens (Human))	8.63

What the record says about O=C(NCc1ccccc1OC(F)(F)F)c1ccc(CN2CCN(C(=O)c3ccc[nH]c3=O)CC2)s1 [Example 66] : pIC50 is 8.90

// field: pIC50; key: Cc1cccc(C(=O)N2CCN(Cc3ncc(C(=O)NCc4ccc(Cl)cc4Cl)s3)CC2)n1 [Example 174] ; value = 7.83

Recorded pIC50 (compound O=C(NCc1ccccc1C(F)(F)F)c1ccc(CN2CCN(C(=O)c3cnn4ccccc34)CC2)s1 [Example 151] ): 8.71

// sample CN(C)CCC(=O)N1CCN(Cc2ncc(C(=O)NCc3ccc(Cl)cc3Cl)s2)CC1 [Example 199] , its pIC50 was 6.68
